Each entry below lists one item and its recorded activity value.
- TARGET OR SYSTEM: Nicotinamide N-methyltransferase (Homo sapiens)
- EXPERIMENT: Confirmatory Screen for Target Class Profiling of Small Molecule Inhibitors of Methyltransferases (AID 1745852)
- CONDITION DESCRIPTION: MTase-Glo luminescence, SAH detection, recombinant enzyme; measured here: NNMT max response; stronger effect = lower value
Record the value in %, omitting the unit from your answer.

| COMPOUND | TARGET OR SYSTEM | activity / % |
| --- | --- | --- |
| Cc1ccc(NS(=O)(=O)c2ccc3c(c2)[C@H]2C=CC[C@H]2[C@@H](c2cccc(Cl)c2)N3)c(C)c1 | Nicotinamide N-methyltransferase (Homo sapiens) | -16.4 |

Asked: # activity lookup, item COc1ccc(OC)c2c1cc1n2CC(C)(C(=O)NC2CCCCCC2)N(Cc2ccccn2)C1=O (stereo unspecified)
Given back: -20.5

Asked: Would you kindly repeat that for "O=C(CCC[C@@H]1[C@H]2CCCN3CCC[C@@H](CN1Cc1ccccc1)[C@@H]23)Nc1cccnc1" ?
Given back: -11.8

Asked: Would you kindly repeat that for "COc1ccccc1-c1[nH]nc2ncc(C(=O)NCC3CC3)nc12" ?
Given back: -16.5

Asked: Would you kindly repeat that for "COc1ccc(-c2nnc3n(CCc4ccccc4)c(=O)c4ccccc4n23)c(OC)c1" ?
Given back: -9.89

Asked: Would you kindly repeat that for "C1=C(c2nc(-c3ccncc3)cc3c2ccn3Cc2cccnc2)CCOC1" ?
Given back: -8.71

----------
- TARGET OR SYSTEM: Cytochrome P450 2C19 (Homo sapiens) (UniProt P33261)
- Sequence (P33261 whole entry, looked up): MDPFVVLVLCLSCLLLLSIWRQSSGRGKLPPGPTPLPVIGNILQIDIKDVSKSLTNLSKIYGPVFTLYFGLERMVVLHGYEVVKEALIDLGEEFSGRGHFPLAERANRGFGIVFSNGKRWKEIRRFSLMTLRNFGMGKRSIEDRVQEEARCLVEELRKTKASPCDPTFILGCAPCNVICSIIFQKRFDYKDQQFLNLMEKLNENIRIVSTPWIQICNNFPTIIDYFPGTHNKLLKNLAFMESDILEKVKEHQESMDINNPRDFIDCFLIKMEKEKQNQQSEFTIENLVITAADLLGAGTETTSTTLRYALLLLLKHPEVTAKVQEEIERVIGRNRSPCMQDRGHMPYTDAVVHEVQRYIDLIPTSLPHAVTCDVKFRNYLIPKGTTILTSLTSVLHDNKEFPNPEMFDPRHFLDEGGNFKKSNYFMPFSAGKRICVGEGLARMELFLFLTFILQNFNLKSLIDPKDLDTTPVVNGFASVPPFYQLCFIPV
- EXPERIMENT: qHTS for inhibitors of CYP2C19 against the NCATS DSHEA and TCM libraries (AID 1919974);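 further: luminescence from luciferin released by CYP2C19 oxidation of a pro-luciferin substrate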
- CONDITION DESCRIPTION: CYP2C19 enzyme inhibition, luminescence qHTS; series mostly up to 34.1 µM
Results filed as inconclusive are left out. The source made the active and inactive calls. The call rests on the fitted dose curve; in most records, active means well fitted inhibition curve with a large enough effect; inconclusive means small, poorly fitted or top-dose-only effect; inactive means no such curve, though single readings can be large or run the other way.
One label from this list, please: TRUE = active, FALSE = inactive

Example results:
| COMPOUND | QUALITATIVE LABEL |
| --- | --- |
| CCCCCCCC/C=C/CCCCCCCC(=O)O | TRUE |
| Cc1ncc(COP(=O)(O)O)c(C)c1O | TRUE |
| C=C1CC[C@H](O)C/C1=C\C=C1/CCC[C@]2(C)[C@@H]([C@H](C)CC[C@H](C)C(C)C)CC[C@@H]12 | TRUE |

Asked: Recorded test outcome, item CC1(C)CC[C@]2(C(=O)O)CC[C@]3(C)C(=CCC4[C@@]5(C)CC[C@@H](O)C(C)(C)C5CC[C@]43C)C2C1 (stereo not given in full)
Given back: FALSE

----------
- TARGET OR SYSTEM: Rap guanine nucleotide exchange factor 3 (Homo sapiens) (UniProt O95398)
- EXPERIMENT: Counterscreen qHTS for agonist of cAMP-regulated guanine nucleotide exchange factor 3 (EPAC1) (AID 1645889); further: % of control where 0% means no effect; nearly all actives have a fitted effect of over 40% in size
- CONDITION DESCRIPTION: EPAC1 Rap1B-BODIPY-GDP exchange, fluorescence; series mostly up to 154 µM
Inconclusive results are not listed. Activity calls are given as the source filed them. Calls follow the shape of the dose curve; as a rule, active = well fitted activation curve with a large enough effect; inconclusive = small, poorly fitted or top-dose-only effect, or another doubt; inactive = no such curve, though single readings can be large or run the other way.
MEASURED PARAMETER: activation

# annotated cases, reported activation shown
| MOLECULE | activation |
| --- | --- |
| CCc1ccc(NC(=O)CSc2nc(-c3ccccc3)c(C#N)c(=O)[nH]2)cc1 | inactive |
| CSc1ccc(C2C(C(=O)c3ccco3)=C(O)C(=O)N2c2nnc(SC)s2)cc1 (stereo unspecified) | inactive |
| Cc1cc2ccccc2n1CCNC(=O)C1CCCCC1 | inactive |
| Cc1ccc(Cc2c(-c3cccc(Cl)c3)nc3ccc(Br)cn23)cc1 | inactive |
| CCCc1nc2c(=O)n(C)c(=O)nc-2n(C)n1 | inactive |
| CCCCC[C@@H](C)N1C[C@H](COCc2ccccc2)Oc2cc(N3CC[C@@H](O)C3)ccc2S1(=O)=O | inactive |
| CCOc1cc(C)c(S(=O)(=O)N2CCCCC2)cc1C | inactive |
| O=C(O)/C(CC(=O)c1ccc(Cl)cc1)=N/Nc1ccc([N+](=O)[O-])cc1[N+](=O)[O-] | inactive |

Asked: # activation lookup, item "COc1ccc(CCNc2oc(-c3ccc(C)cc3)nc2C#N)cc1OC"
Given back: 26.9% [at 30.8 µM] (inactive)

Asked: Would you kindly repeat that for "CCCNC(=O)c1ccc(N2CCC3(CC2)CC(c2ccccc2)=NO3)c(NC(=O)c2ccccc2)c1" ?
Given back: inactive

Asked: Would you kindly repeat that for "CCn1cc(C=C2C(=O)c3ccccc3C2=O)c2ccccc21" ?
Given back: inactive

Asked: Would you kindly repeat that for "COc1ccc(NC(=O)CSc2nc3sc4c(c3c(=O)n2-c2ccc(OC)cc2)CCN(C)C4)cc1" ?
Given back: 31.5% [at 30.8 µM] (inactive)

Asked: Would you kindly repeat that for COc1ccc(OC)c(C(C[N+](=O)[O-])c2c(C)cc3ccccn23)c1 (stereo unspecified) ?
Given back: inactive

Asked: Would you kindly repeat that for "CC1=CC(C)(C)N2C(=O)C(=Nc3ccc(O)cc3)c3cccc1c32" ?
Given back: inactive

Asked: Would you kindly repeat that for "CCCC/C=C/[C@H](c1ccccc1)[C@H](CO)Cc1cccnc1" ?
Given back: inactive

Asked: Would you kindly repeat that for "CCOC(=O)c1ccccc1NC(=O)CSc1nc2c(sc(=S)n2CC)c(=O)[nH]1" ?
Given back: 10.2% [at 30.8 µM] (inactive)

Asked: Would you kindly repeat that for "CCCCC[C@H](C)N1C[C@H](COCc2ccccc2)Oc2cc(N3CCC[C@H]3C(N)=O)ccc2S1(=O)=O" ?
Given back: inactive

Asked: Would you kindly repeat that for "COc1nc(-c2ccccc2)c2cc(Br)ccc2n1" ?
Given back: 24.2% [at 30.8 µM] (inactive)

Asked: Would you kindly repeat that for "COCCN(CCOC)Cc1cc(=O)oc2cc(C)c(Cl)cc12" ?
Given back: inactive

Asked: Would you kindly repeat that for Cc1cccc(N2CC(C(=O)Nc3nnc(SCC(=O)NCC4CCCO4)s3)CC2=O)c1 (stereo unspecified) ?
Given back: inactive

Asked: Would you kindly repeat that for CCCS(=O)(=O)NC(=O)C1(C)CCN(C(=O)c2cccc(OC(F)(F)F)c2)C1 (stereo unspecified) ?
Given back: inactive

----------
- TARGET OR SYSTEM: Rap guanine nucleotide exchange factor 4 (Homo sapiens) (UniProt Q8WZA2)
- Sequence (Q8WZA2 whole entry, looked up): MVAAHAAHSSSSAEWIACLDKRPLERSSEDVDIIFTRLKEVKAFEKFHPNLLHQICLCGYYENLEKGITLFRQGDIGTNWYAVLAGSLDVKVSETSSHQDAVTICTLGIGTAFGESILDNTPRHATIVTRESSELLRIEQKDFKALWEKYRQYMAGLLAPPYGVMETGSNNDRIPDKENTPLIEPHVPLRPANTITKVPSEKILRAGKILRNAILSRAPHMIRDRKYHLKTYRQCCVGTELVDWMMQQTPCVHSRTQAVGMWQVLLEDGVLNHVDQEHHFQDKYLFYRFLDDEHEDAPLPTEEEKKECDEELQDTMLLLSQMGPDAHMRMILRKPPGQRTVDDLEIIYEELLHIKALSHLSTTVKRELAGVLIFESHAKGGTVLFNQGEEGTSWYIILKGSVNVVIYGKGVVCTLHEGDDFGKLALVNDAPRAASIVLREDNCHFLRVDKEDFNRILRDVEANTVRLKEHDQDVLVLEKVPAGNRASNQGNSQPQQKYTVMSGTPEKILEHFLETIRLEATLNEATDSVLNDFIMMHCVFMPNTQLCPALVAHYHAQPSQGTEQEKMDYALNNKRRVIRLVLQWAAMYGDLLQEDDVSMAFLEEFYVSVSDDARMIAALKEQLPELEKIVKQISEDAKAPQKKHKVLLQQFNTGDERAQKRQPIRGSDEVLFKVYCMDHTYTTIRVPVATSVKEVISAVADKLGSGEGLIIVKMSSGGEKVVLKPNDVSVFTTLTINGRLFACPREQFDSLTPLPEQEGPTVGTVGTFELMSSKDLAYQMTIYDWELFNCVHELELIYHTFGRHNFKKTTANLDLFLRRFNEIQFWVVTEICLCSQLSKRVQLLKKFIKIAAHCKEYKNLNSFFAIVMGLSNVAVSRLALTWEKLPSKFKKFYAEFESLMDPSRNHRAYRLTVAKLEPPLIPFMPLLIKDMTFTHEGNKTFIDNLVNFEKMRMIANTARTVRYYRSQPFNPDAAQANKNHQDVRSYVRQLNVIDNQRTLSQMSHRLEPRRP
- EXPERIMENT: Confirmatory qHTS for agonist of cAMP-regulated guanine nucleotide exchange factor 4 (EPAC2) (AID 1645884);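 further: nucleotide exchange releases bodipy-GDP from Rap1 and this lowers its fluorescence; on the % scale 0 is the no-effect control and ±100 the full control effect; nearly all actives have a fitted effect of over 65% in size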
- CONDITION DESCRIPTION: EPAC2 GEF activity, Rap1B-BODIPY-GDP fluorescence; series mostly up to 154 µM
Results filed as inconclusive are left out. Active and inactive are the calls of the source. Calls follow the shape of the dose curve; as a rule, active = well fitted activation curve with a large enough effect; inconclusive = small, poorly fitted or top-dose-only effect; inactive = no such curve, though single readings can be large or run the other way.
MEASURED PARAMETER: activation

# annotated cases, reported activation shown
| MOLECULE | activation |
| --- | --- |
| O=C(N/N=C/c1ccccc1O)c1ccc2c(c1)OCO2 | inactive |
| Cc1ccc(OCC(=O)Nc2ccc(N3CCCC3)cc2)cc1C | inactive |
| CCC/C=C/c1ccc(CN2C(CC(C)C)C(=O)N(Cc3cn(Cc4ccco4)nn3)CCS2(=O)=O)cc1 (stereo unspecified) | inactive |
| Cc1ccccc1-c1ccc2ncnc(N3CCOCC3)c2c1 | inactive |
| O=S1(=O)N=C(N(Cc2cccs2)c2ccc(O)cc2)c2ccccc21 | inactive |

Asked: # activation lookup, item "COc1ccc(-n2ccn(Cc3ccc(C)cc3)c(=O)c2=O)cc1OC"
Given back: inactive

----------
- TARGET OR SYSTEM: Rap guanine nucleotide exchange factor 4 (Homo sapiens)
- EXPERIMENT: Confirmatory qHTS for antagonist of cAMP-regulated guanine nucleotide exchange factor 4 (EPAC2) (AID 1645885); further: nearly all actives have a fitted effect of over 25% in size
- CONDITION DESCRIPTION: EPAC2 Rap1B-BODIPY-GDP exchange fluorescence, biochemical; series mostly up to 12.7 µM
Records with an inconclusive call do not appear. Activity calls are given as the source filed them. Calls follow the shape of the dose curve; as a rule, active = well fitted inhibition curve with a large enough effect; inconclusive = small, poorly fitted or top-dose-only effect; inactive = no such curve, though single readings can be large or run the other way.
One label from this list, please: active, inactive

Example results:
| COMPOUND | TARGET OR SYSTEM | QUALITATIVE LABEL |
| --- | --- | --- |
| CC(C)C[C@H]1COCCS(=O)(=O)N1Cc1cccc(Cl)c1 | Rap guanine nucleotide exchange factor 4 (Homo sapiens) | inactive |
| Cc1ccc(C)c(Oc2nnnn2-c2ccccc2)c1 | Rap guanine nucleotide exchange factor 4 (Homo sapiens) | inactive |
| O=C(NNc1cc(Br)c(O)c(Br)c1)c1ccccc1 | Rap guanine nucleotide exchange factor 4 (Homo sapiens) | inactive |
| COc1cc2c(cc1OC)C(COc1cc(C)cc(C)c1)N(C(C)=O)CC2 (configuration not stated) | Rap guanine nucleotide exchange factor 4 (Homo sapiens) | inactive |
| Cc1nnc2ccc(-c3ccc(NC(=O)Cc4cccs4)cc3)nn12 | Rap guanine nucleotide exchange factor 4 (Homo sapiens) | inactive |
| COc1ccccc1C1CC(=O)Oc2cc(C)c(Cl)cc21 (configuration not stated) | Rap guanine nucleotide exchange factor 4 (Homo sapiens) | active |
| CCOc1ccc(N2C(=O)C3Sc4[nH]c(=O)sc4C(/C=C/c4ccccc4)C3C2=O)cc1 (configuration not stated) | Rap guanine nucleotide exchange factor 4 (Homo sapiens) | inactive |
| CCN(CC)c1ccc2cc(C(C)=O)c(=O)oc2c1 | Rap guanine nucleotide exchange factor 4 (Homo sapiens) | inactive |

Asked: Recorded test outcome, item "CCOC(=O)/C(C#N)=C/c1ccc(N2CCN(Cc3ccccc3)CC2)cc1"
Given back: inactive

Asked: Would you kindly repeat that for "O=C(NCc1cccc(Cl)c1)c1ccc(S(=O)(=O)Nc2cccc(C(F)(F)F)c2)cc1" ?
Given back: inactive

Asked: Would you kindly repeat that for "O=[N+]([O-])c1cc(CN2CCN(c3cccc(C(F)(F)F)c3)CC2)c2cccnc2c1O" ?
Given back: inactive

Asked: Would you kindly repeat that for CC1=C(C(=O)Nc2ccccc2)C(c2ccc(Cl)cc2)n2c(s/c(=C/c3cccc(OCC(=O)O)c3)c2=O)=N1 (configuration not stated) ?
Given back: inactive

Asked: Would you kindly repeat that for "O=C(Nc1nc(-c2ccc(Cl)cc2)cs1)C1=COCCO1" ?
Given back: inactive

Asked: Would you kindly repeat that for "COc1ccc(C(=O)CSc2nnc(-c3ccco3)c(-c3ccco3)n2)cc1" ?
Given back: inactive

Asked: Would you kindly repeat that for "NS(=O)(=O)c1ccc(Nc2nc(-c3cccc([N+](=O)[O-])c3)cs2)cc1" ?
Given back: inactive

Asked: Would you kindly repeat that for NS(=O)(=O)c1ccc2c(c1)C1C=CCC1C(C1CC=CCC1)N2 (configuration not stated) ?
Given back: inactive

Asked: Would you kindly repeat that for "Nc1ccc(CSc2ccc(Cl)cc2)c(Cl)c1" ?
Given back: active

Asked: Would you kindly repeat that for "Cc1ccc(Nc2cc(C)nc3c(C)ccc([N+](=O)[O-])c23)cc1" ?
Given back: inactive

Asked: Would you kindly repeat that for "COc1ccc(N2Cc3cccc(C(=O)Nc4ccc(C(C)C)cc4)c3C2=O)cc1" ?
Given back: inactive

Asked: Would you kindly repeat that for CCCOc1ccc(/C(O)=C2/C(=O)C(=O)N(c3ccccn3)C2c2ccc(OC)cc2)cc1C (configuration not stated) ?
Given back: inactive

Asked: Would you kindly repeat that for CCOC(=O)C1=C(N)OC2=C(C(=O)CCC2)C1c1sccc1C (configuration not stated) ?
Given back: inactive

Asked: Would you kindly repeat that for "CCCCC[C@H](C)N1C[C@@H](COCc2ccccc2)Oc2cc(N3CC[C@@H](O)C3)ccc2S1(=O)=O" ?
Given back: inactive

Asked: Would you kindly repeat that for "Cc1cc(NS(=O)(=O)c2ccc(NC(=O)COc3c(C)cc(Br)cc3C)cc2)no1" ?
Given back: inactive

Asked: Would you kindly repeat that for CCCCCCOC(=O)C(C#N)c1nc2ccccc2nc1N1CCCCC1 (configuration not stated) ?
Given back: inactive

Asked: Would you kindly repeat that for "COc1ccc(-c2c(-c3ccccc3OC)oc3ccccc23)cn1" ?
Given back: inactive

Asked: Would you kindly repeat that for "Cc1ccc(Nc2c(-c3ccccn3)nc3cccc(C)n23)cc1" ?
Given back: inactive
